# target: Cytochrome P450 2C19 (Homo sapiens) (UniProt P33261)
# Sequence (P33261 whole entry, looked up): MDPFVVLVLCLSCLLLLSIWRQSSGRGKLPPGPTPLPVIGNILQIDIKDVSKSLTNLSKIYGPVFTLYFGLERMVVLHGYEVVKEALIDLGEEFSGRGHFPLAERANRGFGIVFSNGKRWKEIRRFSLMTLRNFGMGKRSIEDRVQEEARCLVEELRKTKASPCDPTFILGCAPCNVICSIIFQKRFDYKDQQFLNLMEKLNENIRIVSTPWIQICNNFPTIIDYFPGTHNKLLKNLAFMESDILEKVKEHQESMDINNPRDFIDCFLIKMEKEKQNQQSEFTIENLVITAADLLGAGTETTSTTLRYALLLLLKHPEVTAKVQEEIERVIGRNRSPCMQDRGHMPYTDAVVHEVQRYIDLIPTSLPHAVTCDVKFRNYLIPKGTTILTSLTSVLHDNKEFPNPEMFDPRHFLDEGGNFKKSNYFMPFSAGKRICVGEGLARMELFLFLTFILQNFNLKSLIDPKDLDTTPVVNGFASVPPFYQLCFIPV
# assay.summary: Cytochrome panel assay with activity outcomes
# study.conditions: recombinant CYP, pro-luciferin dealkylation, luminescence, p450-cyp2c19; series mostly up to 57.1 µM
Among all 16,000 compounds or so, about 5,800 (36%) were called active. Roughly 23% stayed inconclusive and do not appear here. Calls follow the shape of the dose curve; as a rule, active = well fitted curve in the direction sought with a large enough effect; inconclusive = small, poorly fitted or top-dose-only effect, or effect the other way; inactive = no such curve, though single readings can be large or run the other way. The list shows a part of the results.
Tick one outcome: active, inactive

compound	target	class.assignment
Cc1nn(-c2ccc(F)cc2)c(Cl)c1/C=C(\CCC(=O)O)c1nc2ccccc2s1	Cytochrome P450 2C19 (Homo sapiens) (UniProt P33261)	active

For this compound, state the assay outcome: O=C(CSc1nc2ccccc2o1)Nc1ccccc1N1CCCCCC1
active

For this compound, state the assay outcome: O=C(CNC1CCCCCC1)Nc1ccccc1N1CCCCC1
active

For this compound, state the assay outcome: C/C(=N\N=C1\NC(=O)CC(C(=O)O)S1)c1cccs1 (configuration not stated)
inactive

For this compound, state the assay outcome: Cc1cccc(C)c1OC[C@@H](N)C(C)C
inactive

For this compound, state the assay outcome: Cc1cc(C)nc(SCC(=O)N/N=C\c2sccc2C)n1
active

For this compound, state the assay outcome: COc1ccc(Cl)cc1NC(=O)C12CCC(C)(C(=O)O1)C2(C)C (configuration not stated)
active

For this compound, state the assay outcome: COc1ccc(CCn2c(C)cc(C(=O)CSc3nc(N)cc(=O)[nH]3)c2C)cc1
active

For this compound, state the assay outcome: COc1cccc(Nc2ncc3nc(-c4cccs4)c(=O)n(-c4ccccc4)c3n2)c1
inactive

For this compound, state the assay outcome: Clc1ccc(Cn2c(CN3CCCC3)nc3ccccc32)cc1
active

For this compound, state the assay outcome: Cc1ccccc1Cn1c(Cc2ccccc2)nc2ccccc21
active

For this compound, state the assay outcome: CCC1(C)CC(CCNS(=O)(=O)c2ccc(C)cc2)(c2ccc(C)cc2)CCO1 (configuration not stated)
active

For this compound, state the assay outcome: CCCC/C=C/C(NC(=O)c1cccs1)c1ccccc1 (configuration not stated)
active
